Each recorded value in this set is attributed to patent US4374146A.

Recorded ED50 for the following molecules
Test system: yeast-induced hyperthermia
RUN_DESCRIPTION: Yeast-Induced Hyperthermia Assay
Format: in vivo, rat
CONDITION_DETAILS: po; rat
OBSERVATION_TYPE: ED50 (mg/kg)

MOLECULE | UNIT_INFO | RECORDED_RESULT
CC(=O)Nc1ccc2c(c1)OCO2 [Compound of formula (I), N-(1,3-benzodioxol-5-yl)acetamide] | mg/kg | 57
CC(=O)Oc1ccccc1C(=O)O | mg/kg | 50
CC(=O)Nc1ccc(O)cc1 | mg/kg | 72
CCOc1ccc(NC(C)=O)cc1 [Phenacetin, p-ethoxyacetanilide] | mg/kg | 55

----------
RUN_DESCRIPTION: Acute toxicity assay, rat
CONDITION_DETAILS: in vivo, po, 7 day observation
OBSERVATION_TYPE: LD50 at 168 h

COMPOUND | RECORDED_RESULT
CCOc1ccc(NC(C)=O)cc1 [Phenacetin, p-ethoxyacetanilide] | 2900 mg/kg
CC(=O)Nc1ccc2c(c1)OCO2 [Compound of formula (I), N-(1,3-benzodioxol-5-yl)acetamide] | 1000 mg/kg

----------
System: carrageenin pleurisy in Adrex
RUN_DESCRIPTION: AI activity in Adrex, carrageenin pleurisy p.o.
Assay type: in vivo, rat
CONDITION_DETAILS: CP p.o., cells

COMPOUND | AI Activity in Adrex, Cells
CC(=O)Oc1ccccc1C(=O)O | Inactive
CCOc1ccc(NC(C)=O)cc1 [Phenacetin, p-ethoxyacetanilide] | Inactive

----------
Recorded LD50 at 168 h for the following compounds
RUN_DESCRIPTION: Acute toxicity assay, rat
CONDITION_DETAILS: in vivo, ip, 7 day observation

COMPOUND | LD50 at 168 h
CC(=O)Oc1ccccc1C(=O)O | 500 mg/kg
CC(=O)Nc1ccc2c(c1)OCO2 [Compound of formula (I), N-(1,3-benzodioxol-5-yl)acetamide] | 410 mg/kg
CCOc1ccc(NC(C)=O)cc1 [Phenacetin, p-ethoxyacetanilide] | 900 mg/kg

----------
Recorded LD50 at 168 h for the following compounds
RUN_DESCRIPTION: Acute toxicity assay, mouse
CONDITION_DETAILS: in vivo, po

COMPOUND | LD50 at 168 h, mg/kg
CCOc1ccc(NC(C)=O)cc1 [Phenacetin, p-ethoxyacetanilide] | 2500
CC(=O)Nc1ccc2c(c1)OCO2 [Compound of formula (I), N-(1,3-benzodioxol-5-yl)acetamide] | 660
CC(=O)Oc1ccccc1C(=O)O | 1100
CC(=O)Nc1ccc(O)cc1 | 1640

----------
RUN_DESCRIPTION: Acute toxicity assay, rat
CONDITION_DETAILS: in vivo, ip

COMPOUND | LD50 at 168 h / mg/kg
CC(=O)Nc1ccc(O)cc1 [Acetaminophen] | 1640

----------
Recorded LD50 at 168 h for the following molecules
RUN_DESCRIPTION: Acute toxicity assay, mouse
CONDITION_DETAILS: in vivo, ip

MOLECULE | LD50 at 168 h / mg/kg
CCOc1ccc(NC(C)=O)cc1 [Phenacetin, p-ethoxyacetanilide] | 620
CC(=O)Nc1ccc2c(c1)OCO2 [Compound of formula (I), N-(1,3-benzodioxol-5-yl)acetamide] | 250
CC(=O)Oc1ccccc1C(=O)O | 220
CC(=O)Nc1ccc(O)cc1 | 880
